Experiment: Human HepG2 cell viability assay in 384 well format
Assay type: toxicity, cell-based
Design: dose 125 nL, time 70.5 hour; concentration not given beside the values
Details: HepG2 cells, read-out: Inhibition
MEASURE_NAME: cytotoxicity at 70.5 h (%)
Note: unit % is implicit; provide only the numeric part.

Please review the entries below; each comes with its answer.
[[record]]
compound = "CNc1cc2c(nn1)CCN(C(=O)c1cc(C)n(C3CC3)c1C)C2"
measure_name = "cytotoxicity at 70.5 h"
unit_text = "%"
observed_result = 15.8

[[record]]
compound = "Cc1cc(CC(=O)N2CCN(CC3CC3)[C@@H]3CS(=O)(=O)C[C@@H]32)ccc1F"
measure_name = "cytotoxicity at 70.5 h"
unit_text = "%"
observed_result = 4.69


Field request: cytotoxicity at 70.5 h | item: `CN(C)C(C)(C)CNCc1cn(C)nc1-c1cccnc1`
17.8

Next record, please: `Cc1ccc(CNC(=O)N(C)Cc2cnn(C)c2)s1`
-1.07

Next record, please: `O=C(Nc1cccnc1)Nc1ccn(CC(F)F)n1`
7.38

Next record, please: `Cc1ccc(OCC(=O)NCc2ccco2)nc1`
-2.92

Next record, please: CCn1nc(C)c(CNC(=O)c2cn(CCC3CCCCN3)nn2)c1C (stereo not drawn)
-7.47

Next record, please: `CCOc1ncccc1Cn1cc(-c2ccc(CO)o2)nn1`
-15.3

Next record, please: `Cn1cc(CN2CCCC23CCN(C(=O)c2cccs2)CC3)cn1`
-11.6

Next record, please: `CCn1nnnc1-c1cccc(NC(=O)CCn2cc(C)cn2)c1`
-7.36

Reference source for all entries: ChEMBL document CHEMBL3507680
